pIC50: −log10 of the molar value.
Notes on pIC50 obtained with c-Kit (Homo sapiens, UniProt P10721).
Sequence (P10721 26-976): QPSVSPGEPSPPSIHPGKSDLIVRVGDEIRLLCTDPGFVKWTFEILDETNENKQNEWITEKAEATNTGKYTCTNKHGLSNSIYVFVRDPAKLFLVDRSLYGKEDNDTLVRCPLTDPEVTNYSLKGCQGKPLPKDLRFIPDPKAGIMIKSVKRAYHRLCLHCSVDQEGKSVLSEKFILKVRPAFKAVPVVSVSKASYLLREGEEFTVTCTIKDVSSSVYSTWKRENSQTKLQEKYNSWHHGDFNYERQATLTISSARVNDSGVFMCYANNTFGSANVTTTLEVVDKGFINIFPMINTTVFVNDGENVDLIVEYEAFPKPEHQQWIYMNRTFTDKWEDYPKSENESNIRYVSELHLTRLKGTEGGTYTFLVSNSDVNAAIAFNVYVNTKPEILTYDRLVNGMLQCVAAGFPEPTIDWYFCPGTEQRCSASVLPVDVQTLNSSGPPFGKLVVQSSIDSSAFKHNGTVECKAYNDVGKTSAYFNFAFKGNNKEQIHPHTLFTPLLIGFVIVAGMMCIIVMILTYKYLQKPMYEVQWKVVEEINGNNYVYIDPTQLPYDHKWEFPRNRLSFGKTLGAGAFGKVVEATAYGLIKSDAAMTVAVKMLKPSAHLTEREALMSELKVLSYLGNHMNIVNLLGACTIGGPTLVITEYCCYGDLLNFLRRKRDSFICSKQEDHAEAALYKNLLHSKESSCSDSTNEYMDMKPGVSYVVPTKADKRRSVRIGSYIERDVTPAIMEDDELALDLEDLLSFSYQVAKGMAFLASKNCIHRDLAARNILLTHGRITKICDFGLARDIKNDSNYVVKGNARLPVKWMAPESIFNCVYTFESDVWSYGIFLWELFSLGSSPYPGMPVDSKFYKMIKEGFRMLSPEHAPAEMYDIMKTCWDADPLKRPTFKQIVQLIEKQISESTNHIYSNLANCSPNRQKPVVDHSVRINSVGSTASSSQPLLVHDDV
test_readout: pIC50

INSERT INTO results (compound, censor_symbol, reading) VALUES
  ('O=C(Nc1ccc(-c2ccc3c(=O)[nH]cnc3c2)cc1)Nc1ccc(F)c(F)c1 [QDAU5]', '=', 6.85),
  ('O=C(Nc1ccc(-c2ccc3c(=O)[nH]cnc3c2)cc1)Nc1ccccc1F [QDAU4]', '<', 6.30);

----------
test_readout: melting point

INSERT INTO results (chemical_structure, reading) VALUES
  ('O=C(Nc1ccc(-c2ccc3c(=O)[nH]cnc3c2)cc1)Nc1ccccc1F', '> 300 °C'),
  ('FC(F)(F)Oc1cc(Br)ccc1NC(=S)Nc1ccc(-c2cccnc2)cc1', '144 to 145 °C'),
  ('Fc1ccc(NC(=S)Nc2ccc(-c3cccnc3)cc2)cc1F', '139 to 140 °C'),
  ('O=C(Nc1ccc(OC(F)(F)F)cc1)Nc1ccc(-c2ccc3c(=O)[nH]cnc3c2)cc1', '> 300 °C'),
  ('S=C(Nc1ccc(-c2cccnc2)cc1)Nc1ccc(Cl)c(Cl)c1', '173 to 175 °C'),
  ('O=C(Nc1ccc(-c2ccc3c(=O)[nH]cnc3c2)cc1)Nc1cccc(Cl)c1', '> 300 °C'),
  ('O=C(Nc1ccc(-c2ccc3c(=O)[nH]cnc3c2)cc1)Nc1ccc(Cl)c(C(F)(F)F)c1', '> 300 °C'),
  ('S=C(Nc1ccc(-c2cccnc2)cc1)Nc1ccc2c(c1)OCO2', '147 to 148 °C'),
  ('O=C(Nc1ccc(F)cc1)Nc1ccc(-c2ccc3c(=O)[nH]cnc3c2)cc1', '> 300 °C'),
  ('FC(F)(F)Oc1ccc(Br)c(NC(=S)Nc2ccc(-c3cccnc3)cc2)c1', '125 to 126 °C'),
  ('FC(F)(F)c1cc(NC(=S)Nc2ccc(-c3cccnc3)cc2)cc(C(F)(F)F)c1', '157 to 158 °C'),
  ('O=C(Nc1ccc(-c2ccc3c(=O)[nH]cnc3c2)cc1)Nc1cccc(F)c1', '> 300 °C'),
  ('FC(F)(F)Oc1ccc(NC(=S)Nc2ccc(-c3cccnc3)cc2)c(Br)c1', '162 to 163 °C'),
  ('O=C(Nc1ccc(-c2ccc3c(=O)[nH]cnc3c2)cc1)Nc1ccc(C(F)(F)F)cc1', '> 300 °C'),
  ('CC(C)c1cccc(NC(=O)Nc2ccc(-c3ccc4c(=O)[nH]cnc4c3)cc2)c1', '> 300 °C'),
  ('FC(F)(F)c1cc(Br)cc(NC(=S)Nc2ccc(-c3cccnc3)cc2)c1', '197 to 199 °C'),
  ('S=C(Nc1ccc(-c2cccnc2)cc1)Nc1ccc(Cl)cc1Cl', '156 to 157 °C'),
  ('FC(F)(F)Oc1ccc(Br)cc1NC(=S)Nc1ccc(-c2cccnc2)cc1', '154 to 155 °C');
